Measured values drawn from patent US5624923A for this set.

- Test system: Vasopressin V1
- experimentalProtocol: Vasopressin V1 Antagonist Activity in Conscious Rats (vasopressin vasopressor response)
- Assay type: in vivo, rat
- particulars: 10 mg/kg i.v., VAS 0.01 i.u./kg, 30 min, SHR
Mark Y only when % Inhibition stays strictly below 80%. Values equal to the cut-off are N.

Inquiry: Dear reviewer, please state whether Cc1ccccc1CC(=O)Nc1ccc(C(=O)N2Cc3cccn3Cc3ccccc32)cc1 has % Inhibition strictly beneath 80%.
Reply text: N

Inquiry: Here's an entry: O=C(Nc1ccc(C(=O)N2Cc3cccn3Cc3ccccc32)cc1)c1cccc(F)c1F . Is its % Inhibition below 80%?
Reply text: N

Inquiry: Hello, I'm reviewing records and need to know if % Inhibition of Cc1ccccc1C(=O)N(C)c1ccc(C(=O)N2Cc3cccn3Cc3ccccc32)cc1 is below 80%. Could you check?
Reply text: Y

Inquiry: Take the molecule O=C(Nc1ccc(C(=O)N2Cc3cccn3Cc3ccccc32)cc1)c1ccccc1F and say whether its % Inhibition is less than 80%.
Reply text: Y

* * *

- Test system: Vasopressin V1
- experimentalProtocol: Vasopressin V1 Antagonist Activity in Conscious Rats (vasopressin vasopressor response)
- Assay type: in vivo, rat
- Parameters: unit not given here
- particulars: 10 mg/kg i.v., VAS 0.02 i.u./kg, 120 min, SHR
Quick reference: Average Change of the listed items.

Solved entries:
{"structureSmiles": "CSc1ccccc1C(=O)Nc1ccc(C(=O)N2Cc3cccn3Cc3ccccc32)cc1", "valueKind": "Average Change", "endpointResult": 6.5}
{"structureSmiles": "COc1ccccc1C(=O)Nc1ccc(C(=O)N2Cc3cccn3Cc3ccccc32)cc1", "valueKind": "Average Change", "endpointResult": 15}
{"structureSmiles": "O=C(Nc1ccc(C(=O)N2Cc3cccn3Cc3ccccc32)cc1)c1ccccc1F", "valueKind": "Average Change", "endpointResult": 15.5}
{"structureSmiles": "O=C(Nc1ccc(C(=O)N2Cc3cccn3Cc3ccccc32)cc1)c1cccc(F)c1F", "valueKind": "Average Change", "endpointResult": 37.5}
{"structureSmiles": "Cc1ccccc1C(=O)N(C)c1ccc(C(=O)N2Cc3cccn3Cc3ccccc32)cc1", "valueKind": "Average Change", "endpointResult": 11.5}
{"structureSmiles": "Cc1ccsc1C(=O)Nc1ccc(C(=O)N2Cc3cccn3Cc3ccccc32)cc1", "valueKind": "Average Change", "endpointResult": 15}
{"structureSmiles": "O=C(Nc1ccc(C(=O)N2Cc3cccn3Cc3ccccc32)cc1)c1ccc(Cl)cc1Cl", "valueKind": "Average Change", "endpointResult": 29.5}

Okay, now this molecule:
Given item O=C(Nc1ccc(C(=O)N2Cc3cccn3Cc3ccccc32)cc1)C1CCCCC1 , the value recorded as its Average Change is 14

* * *

Recorded % Inhibition for the following compounds
- System: Vasopressin V1
- experimentalProtocol: Vasopressin V1 Antagonist Activity in Conscious Rats (vasopressin vasopressor response)
- Type: in vivo, rat
- particulars: 20 mg/kg i.v., VAS 0.02 i.u./kg, 240 min, SHR
Please give a number only; it is taken to be in %.

Worked cases, answers included:
{"structureSmiles": "O=C(Nc1ccc(C(=O)N2Cc3cccn3Cc3ccccc32)cc1)c1sc2ccccc2c1Cl", "targetEntity": "Vasopressin V1", "% Inhibition / %": 18}
{"structureSmiles": "Cc1cc(C(=O)N2Cc3cccn3Cc3ccccc32)ccc1N", "targetEntity": "Vasopressin V1", "% Inhibition / %": 44}
{"structureSmiles": "O=C(Nc1ccc(C(=O)N2Cc3cccn3Cc3ccccc32)cc1)c1ccc2[nH]ccc2c1", "targetEntity": "Vasopressin V1", "% Inhibition / %": 28}

Could you now consider this next compound?
Lab note: Cc1c(CC(=O)Nc2ccc(C(=O)N3Cc4cccn4Cc4ccccc43)cc2)sc2ccccc12 gave % Inhibition of 38
